The reported numbers originate from the supplement of paper PMC6555819.

- System: PPARg DBDmut IVT, anti-PPARg (DBD mutation: PPARg1 K132A/R137A, NR concentration 270 nM)
- protocol.notes: PBM binding z-score (relative to random genomic background probes); higher = stronger binding; sequences stand for … in GC…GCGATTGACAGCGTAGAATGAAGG
quantity.kind: PBM binding z-score
// print number alone

Notebook: `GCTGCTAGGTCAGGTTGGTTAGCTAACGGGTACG` , PBM binding z-score read as -0.404

Notebook: `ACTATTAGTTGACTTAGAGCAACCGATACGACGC` , PBM binding z-score read as 1.1

Notebook: `CTCGAAAGGTAGTGCTCAGGTGAGTATACCAAAC` , PBM binding z-score read as -0.517

Notebook: `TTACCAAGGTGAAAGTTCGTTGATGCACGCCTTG` , PBM binding z-score read as 0.287

Notebook: `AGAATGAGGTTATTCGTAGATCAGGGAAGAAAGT` , PBM binding z-score read as 0.521

Notebook: `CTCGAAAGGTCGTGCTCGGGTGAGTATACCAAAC` , PBM binding z-score read as -0.339

Notebook: `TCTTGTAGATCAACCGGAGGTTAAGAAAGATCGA` , PBM binding z-score read as 0.343

Notebook: `CCTGCTAGGTCAATGGTCATCTAAAGCAGCTCGC` , PBM binding z-score read as -0.372

Notebook: `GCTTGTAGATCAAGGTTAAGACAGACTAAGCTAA` , PBM binding z-score read as -0.149

Notebook: `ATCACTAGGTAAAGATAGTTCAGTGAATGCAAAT` , PBM binding z-score read as 1.14

Notebook: `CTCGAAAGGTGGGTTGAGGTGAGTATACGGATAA` , PBM binding z-score read as 0.0199

Notebook: `TCTGCTAGGTCAACGATGGTCACCTAATCTGCTA` , PBM binding z-score read as 0.398
